B1: HDV Ribozyme (parent)
chain: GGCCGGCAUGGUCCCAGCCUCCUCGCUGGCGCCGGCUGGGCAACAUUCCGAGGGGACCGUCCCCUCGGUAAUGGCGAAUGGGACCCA

variants of: B1; assay: self-cleavage, relative activity (ratio to wild type); higher = more cleavage; co-transcriptional
We'd kindly ask you to apply these self-cleavage classes: lower = under 0.1, middle = from 0.1 up to 0.5, upper = 0.5 and over

[in] Which class does C7U C64U fall in?
[out] upper

[in] Also check C49A C58U
[out] upper

[in] Also check G28A U37C
[out] middle

[in] Also check G68C G73C
[out] lower

[in] Also check G38U G73A
[out] middle

[in] Also check U46C A77U
[out] middle

[in] Also check G11C C19A
[out] lower

[in] Also check G10U G25C
[out] middle

[in] Also check G17C C84A
[out] middle

[in] Also check A16C U47C
[out] upper

[in] Also check G52A G74A
[out] upper
